Listing of recorded Plant response rating, Soybean by entry.
Tested on: soybean (Glycine max)
Assay: Test B pre-/postemergence plant response
Type: in vivo
Details: 31 g ai/ha, postemergence; scale 0 to 100, 0 is no effect, 100 is complete control
result type: Plant response rating, Soybean

>>> print(df.to_string())
                                item_smiles  readout_value
0  CCCCn1c(CCC)ncc(C(=O)C2=C(O)CCCC2=O)c1=O             80
1  O=C1CCCC(O)=C1C(=O)c1cnc(-c2ccccc2)n(C2CC2)c1=O             98
2  O=C1CCCC(O)=C1C(=O)c1cnc(-c2ccc(Br)cc2)n(-c2ccccc2)c1=O             75
3  CCn1c(-c2ccccc2)ncc(C(=O)C2=C(O)CCCC2=O)c1=O             55
4  O=C1CCCC(O)=C1C(=O)c1cnc(C2CCCC2)n(-c2ccccc2)c1=O             90

Each recorded value in this set is attributed to patent US8952024B2.
